target: T1, ICAM-1 (intracellular adhesion molecule 1), as used in the ELISA of monovalent ICAM-1 binding (human, UniProt P05362 28-480, limits assumed); experiment: ELISA of monovalent ICAM-1 binding; for example inhibition of 84H10 binding to ICAM-1
T1 construct: also called purified ICAM-1
T1 sequence (P05362 28-480 limits assumed): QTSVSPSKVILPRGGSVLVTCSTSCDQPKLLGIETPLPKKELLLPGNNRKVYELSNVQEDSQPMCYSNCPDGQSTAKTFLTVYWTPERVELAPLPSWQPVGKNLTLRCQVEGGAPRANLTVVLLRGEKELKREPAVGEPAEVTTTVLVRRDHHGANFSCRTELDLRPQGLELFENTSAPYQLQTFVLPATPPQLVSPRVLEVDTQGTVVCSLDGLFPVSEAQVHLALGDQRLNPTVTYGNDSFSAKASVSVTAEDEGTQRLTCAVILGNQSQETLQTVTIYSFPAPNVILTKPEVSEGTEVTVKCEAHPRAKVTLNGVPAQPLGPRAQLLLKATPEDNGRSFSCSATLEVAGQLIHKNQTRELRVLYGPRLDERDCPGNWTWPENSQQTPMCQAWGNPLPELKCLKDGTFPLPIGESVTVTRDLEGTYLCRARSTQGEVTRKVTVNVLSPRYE
Bridge positions count the residues as written; N and C are the ends. Ends that are not written are not given here.
Recorded endpoint: IC50 (nM)

- Binder: "CLLRMRSIC (disulfide 1-9, Synthesized by Biopeptide; consensus derived from phage display on ICAM-1) [consensus peptide CLLRMRSIC (SEQ ID NO: 1), cyclized in the disulfide-linked form]"
  Measured number: 250
